TARGET SYSTEM: DPP-IV (Homo sapiens, UniProt P27487)
Construct: purchased Abnova KA1311
Sequence (P27487 whole entry): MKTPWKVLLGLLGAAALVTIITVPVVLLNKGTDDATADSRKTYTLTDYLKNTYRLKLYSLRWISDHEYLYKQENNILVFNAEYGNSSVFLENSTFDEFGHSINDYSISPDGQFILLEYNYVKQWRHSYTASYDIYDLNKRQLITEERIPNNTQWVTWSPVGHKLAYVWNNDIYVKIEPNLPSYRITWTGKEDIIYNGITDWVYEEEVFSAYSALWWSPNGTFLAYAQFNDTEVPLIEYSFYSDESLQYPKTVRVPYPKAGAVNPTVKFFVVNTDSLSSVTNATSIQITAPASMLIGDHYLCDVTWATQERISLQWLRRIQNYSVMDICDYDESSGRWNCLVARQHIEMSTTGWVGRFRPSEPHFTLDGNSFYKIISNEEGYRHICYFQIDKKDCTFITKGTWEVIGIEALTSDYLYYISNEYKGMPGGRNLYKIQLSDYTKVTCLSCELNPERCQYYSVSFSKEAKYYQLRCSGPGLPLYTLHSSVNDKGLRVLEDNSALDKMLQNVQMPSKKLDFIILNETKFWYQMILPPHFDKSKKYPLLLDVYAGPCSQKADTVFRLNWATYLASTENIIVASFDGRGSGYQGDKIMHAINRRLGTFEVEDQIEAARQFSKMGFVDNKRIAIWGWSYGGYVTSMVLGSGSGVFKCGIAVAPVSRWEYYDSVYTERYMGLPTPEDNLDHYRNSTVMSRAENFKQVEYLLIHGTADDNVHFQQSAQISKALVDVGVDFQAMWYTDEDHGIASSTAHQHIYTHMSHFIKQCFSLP
TEST DETAILS: DPP-IV inhibitor screening assay (KA1311 kit, Gly-Pro-AMC)
Type: biochemical
TEST SETTINGS: synthetic peptides; 37 °C, 30 min; Gly-Pro-AMC substrate; fluorescence ex 350 nm / em 460 nm; mean ± standard deviation (n = 3); read-out: IC50 (DPP-IV inhibition)
Where a SMILES comes first, the peptide text is derived from it.
ASSAY METRIC: IC50 (nM)
Report as a plain number; the unit nM is understood.

Task item: IC50 lookup needed for CC(C)[C@H](N)C(=O)N[C@@H](Cc1ccc(O)cc1)C(=O)N1CCC[C@H]1C(=O)O [VYP] (H-Val-Tyr-Pro-OH) , thanks.
Reply: 399

Task item: IC50 lookup needed for CC(C)C[C@H](NC(=O)CNC(=O)[C@@H]1CCCN1)C(=O)N[C@H](C(=O)NCC(=O)O)C(C)C [PGLVG] (H-PGLVG-OH) , thanks.
Reply: 110

Others:
Task item: IC50 lookup needed for O=C(CNC(=O)[C@@H]1CCCN1C(=O)[C@@H]1CCCN1)N[C@@H](Cc1ccccc1)C(=O)O [PPGF] (H-PPGF-OH) , thanks.
Reply: 4.63

Task item: IC50 lookup needed for CC(C)[C@H](NC(=O)[C@@H](N)Cc1ccccc1)C(=O)N[C@@H](C)C(=O)O [FVA] (H-Phe-Val-Ala-OH) , thanks.
Reply: 402
